- Target entity: P-gp (Homo sapiens)
- Sequence (P08183 whole entry): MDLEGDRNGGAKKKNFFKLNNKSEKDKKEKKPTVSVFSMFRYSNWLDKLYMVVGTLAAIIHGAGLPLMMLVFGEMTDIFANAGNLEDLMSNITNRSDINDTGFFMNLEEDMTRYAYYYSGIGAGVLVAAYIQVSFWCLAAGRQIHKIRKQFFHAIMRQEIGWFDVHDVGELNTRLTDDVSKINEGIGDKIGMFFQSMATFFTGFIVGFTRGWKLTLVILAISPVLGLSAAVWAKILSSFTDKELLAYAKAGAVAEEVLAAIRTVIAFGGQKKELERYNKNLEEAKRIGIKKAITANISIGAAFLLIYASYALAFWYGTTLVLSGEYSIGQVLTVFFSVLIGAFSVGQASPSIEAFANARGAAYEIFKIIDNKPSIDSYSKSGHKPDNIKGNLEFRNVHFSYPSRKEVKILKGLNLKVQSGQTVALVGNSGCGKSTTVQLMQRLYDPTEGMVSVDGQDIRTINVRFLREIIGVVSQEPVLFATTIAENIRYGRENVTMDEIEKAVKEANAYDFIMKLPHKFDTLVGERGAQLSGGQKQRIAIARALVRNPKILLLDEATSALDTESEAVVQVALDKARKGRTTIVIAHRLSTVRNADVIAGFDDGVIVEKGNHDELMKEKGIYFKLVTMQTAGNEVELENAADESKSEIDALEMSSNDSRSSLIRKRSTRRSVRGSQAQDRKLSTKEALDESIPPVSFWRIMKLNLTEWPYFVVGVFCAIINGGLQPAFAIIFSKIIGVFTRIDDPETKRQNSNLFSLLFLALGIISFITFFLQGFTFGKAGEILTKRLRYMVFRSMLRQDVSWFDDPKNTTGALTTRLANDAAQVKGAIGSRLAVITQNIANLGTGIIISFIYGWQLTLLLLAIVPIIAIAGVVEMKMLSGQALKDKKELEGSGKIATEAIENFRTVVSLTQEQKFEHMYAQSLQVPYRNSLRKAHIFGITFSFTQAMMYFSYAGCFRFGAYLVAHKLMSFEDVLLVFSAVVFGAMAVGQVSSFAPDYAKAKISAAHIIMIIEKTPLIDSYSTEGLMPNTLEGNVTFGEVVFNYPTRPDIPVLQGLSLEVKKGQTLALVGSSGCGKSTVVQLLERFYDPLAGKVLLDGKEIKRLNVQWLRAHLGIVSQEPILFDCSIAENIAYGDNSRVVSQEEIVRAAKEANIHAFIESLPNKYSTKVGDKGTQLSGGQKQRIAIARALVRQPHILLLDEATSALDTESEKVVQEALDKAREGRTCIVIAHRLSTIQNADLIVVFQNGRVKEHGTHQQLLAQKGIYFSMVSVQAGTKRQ
- Experimental details: P-gp study, bidirectional permeability in NIH MDR1 cells
- Format: in vitro ADME
- Stated conditions: MDCK-MDR1; GF120918 −
Assay readout: Papp A→B (×10⁻⁶ cm/s)

* COCCc1ccc(OCC(O)CNC(C)C)cc1 (centres unmarked) | 21.2
* CC(C)(C)NCC(O)COc1cccc2c1CC(O)C(O)C2 (centres unmarked) | 0.26
